The reported measurements were obtained from ChEMBL document CHEMBL1121819.

test: Acute toxicity of was measured in rat by ip administration when administered intraperitoneally; assay type: organism-based; conditions: in vivo
quantity.measured: LD50

compound	observed.value
CCCC(CCC)C(=O)O [VALPROIC ACID]	838 mg/kg

====

This section presents molecules with their documented LD50 values.
assay: Acute toxicity measured in mice when administered intraperitoneally; type: organism-based; conditions: mus sp., in vivo, ip

molecule	censoring.sign	LD50 [mg/kg]
COc1ccc(CC2(C)NC(=O)NC2=O)c(OC)c1 (stereo not drawn)	>	600
CCOC(=O)CN1C(=O)NC(Cc2cccc(C(F)(F)F)c2)C1=O (stereo not drawn)	=	500
COc1ccc(OC)c(/C=C2/NC(=O)NC2=O)c1	>	500
CN1C(=O)NC(Cc2cccc(C(F)(F)F)c2)C1=O (stereo not drawn)	=	350
O=C1NC(=O)C(c2ccccc2)(c2cccc(C(F)(F)F)c2)N1 (stereo not drawn)	>	100
COc1ccc(/C=C2/NC(=O)NC2=O)cc1OC	>	500
CN1C(=O)NC(Cc2cccc(Br)c2)C1=O (stereo not drawn)	=	500
O=C1NC(=O)C(c2ccccc2)(c2ccccc2)N1 [PHENYTOIN]	=	100
O=C1NC(=O)C(Cc2cccc(C(F)(F)F)c2)N1 (stereo not drawn)	=	350
O=C1NC(=O)/C(=C\c2cccc(Br)c2)N1	>	500
COc1ccc(OC)c(CC2(C)NC(=O)NC2=O)c1 (stereo not drawn)	>	800
COc1ccc(CC2(C)NC(=O)NC2=O)cc1OC (stereo not drawn)	>	500
O=C1NC(=O)/C(=C\c2cccc(C(F)(F)F)c2)N1	=	350
